# tgt: T1, IL-23 receptor on the surface of HEK-Blue IL-23 cells (UniProt Q5VWK5 24-629, limits assumed)
# T1 sequence (looked up): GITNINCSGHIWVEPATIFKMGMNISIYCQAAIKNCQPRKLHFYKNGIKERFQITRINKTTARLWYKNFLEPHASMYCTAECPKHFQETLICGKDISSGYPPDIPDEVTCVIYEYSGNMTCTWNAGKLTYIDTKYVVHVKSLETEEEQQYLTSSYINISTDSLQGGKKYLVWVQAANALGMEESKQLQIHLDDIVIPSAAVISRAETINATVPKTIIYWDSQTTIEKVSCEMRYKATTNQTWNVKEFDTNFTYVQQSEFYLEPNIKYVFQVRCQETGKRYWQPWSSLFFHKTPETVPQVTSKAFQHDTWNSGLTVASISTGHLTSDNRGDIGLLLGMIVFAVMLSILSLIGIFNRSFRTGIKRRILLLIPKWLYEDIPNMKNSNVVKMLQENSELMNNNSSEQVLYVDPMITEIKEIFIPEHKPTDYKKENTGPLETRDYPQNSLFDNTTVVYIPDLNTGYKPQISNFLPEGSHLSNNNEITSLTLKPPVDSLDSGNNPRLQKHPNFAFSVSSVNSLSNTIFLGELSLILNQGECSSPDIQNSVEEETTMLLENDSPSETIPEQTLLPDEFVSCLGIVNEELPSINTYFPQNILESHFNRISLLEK
# assay-method-text: cell-based or functional assay
Starred links: 1 amine or outer side, 2 acyl side, 3 side chain; linkers in the order of their positions; H or OH if unused. Positions of bridges follow the written chain, without caps; N, C: chain ends. Non-standard residues stand in square brackets, D forms with d. No end group written: not given here. Yde = (2S)-2-amino-3-[4-[2-(dimethylamino)ethoxy]phenyl]propanoic acid, CN(C)CCOc1ccc(C[C@H](N[*:1])C(=O)[*:2])cc1; Phe(4-OMe) = COc1ccc(C[C@H](N[*:1])C(=O)[*:2])cc1; Trp(7-Me) = Cc1cccc2c(C[C@H](N)C(=O)O)c[nH]c12; 2Nal = N[C@@H](Cc1ccc2ccccc2c1)C(=O)O; 3Pal = N[C@@H](Cc1cccnc1)C(=O)O; Dad = desamino-aspartamic acid; NMeN = CN[C@@H](CC(N)=O)C(=O)O; Aib = CC(C)(N)C(=O)O; Ahx = NCCCCCC(=O)O; Sar = CNCC(=O)O
reported-property: pSTAT3 (nM)
Express the result in nM but write the number alone.

Return reported pSTAT3 (nM); argument: [Dad]CK[Trp(7-Me)]K(Ac)C[Yde][2Nal][Aib]KN[3Pal][Sar]-NH2 (lactam (positions not given here); disulfide 2-6; not fully specified (residue 3, bridges); printed as Dad(§1)-C(§3)(@2)-K[aAc](@3)-Wim-K[Ac]-C(@2)-Yde-Nal-Aib-K(§1)-N-Pal-Sar-NH2; also: K[aAc]: Cys2 bonded to epsilon-NH2 of acetylated Lys3, acetyl presumably on alpha-amine) [Compound of SEQ ID NO: 104]
0.1

If you can, please state the reported pSTAT3 (nM) value of [Ahx]C[NMeN]TWQC[Phe(4-OMe)][2Nal][Aib]DNN-NH2 (lactam N-11; disulfide 2-7; SMILES COc1ccc(C[C@@H]2NC(=O)[C@@H]3CSSC[C@H](NC(=O)CCCCCNC(=O)C[C@@H](C(=O)N[C@@H](CC(N)=O)C(=O)N[C@@H](CC(N)=O)C(N)=O)NC(=O)C(C)(C)NC(=O)[C@H](Cc4ccc5ccccc5c4)NC2=O)C(=O)N(C)[C@@H](CC(N)=O)C(=O)N[C@@H]([C@@H](C)O)C(=O)N[C@@H](Cc2c[nH]c4ccccc24)C(=O)N[C@@H](CCC(N)=O)C(=O)N3)cc1) [Compound of SEQ ID NO: 6] .
72.9
